- test.conditions: buffer; pH 7.4; 200.0 µM
measured.metric: solubility kinetic (mg/mL)
Return type: number; implicit unit mg/mL.

Consider the reported solubility kinetic for these molecules:
C=CCC(CC=C)(C(N)=O)c1ccccc1 | 0.0316
FC(F)(F)c1cccc(NC(=S)N2CCCCCC2)c1 | 0.0223
O=C(Cn1ccccc1=O)c1ccc(Cl)cc1 | 0.0314
CN(C)S(=O)(=O)c1cc(NC(=O)COC(=O)CC2CC3CCC2C3)ccc1Cl (stereo unspecified) | 0.0137
O=[N+]([O-])c1ccc(CP(=O)(c2ccccc2)c2ccccc2)cc1 | 0.008

Q. Kindly indicate its recorded solubility kinetic. Item: CNC(=S)N(Cc1ccc(Cl)cc1)Cc1cccs1
A. 0.016

----------
- test.conditions: buffer; pH 7.4; 200.0 µM
measured.metric: log10(solubility kinetic) (log10 of the value in µg/mL)
Scale: decimal log of solubility kinetic, solubility kinetic in µg/mL.

Q. Kindly indicate its recorded log10(solubility kinetic). Item: CCOc1ccc(NC(=O)CCN2C(=S)NC(C)(C)CC2C)cc1 (configuration not stated)
A. 1.62

Q. Kindly indicate its recorded log10(solubility kinetic). Item: COc1ccc(C(=O)Nc2ccc(NC(=O)Cc3ccccc3)cn2)cc1
A. -0.40

Q. Kindly indicate its recorded log10(solubility kinetic). Item: CCCC(=O)N/C(N)=N/c1nc(C)c2cc(C)ccc2n1
A. 0.93

Q. Kindly indicate its recorded log10(solubility kinetic). Item: Cc1nc(CNS(=O)(=O)c2cc([N+](=O)[O-])ccc2C)cs1
A. 1.01

Q. Kindly indicate its recorded log10(solubility kinetic). Item: COc1ccc(OCC(O)CNC(=O)c2ccccc2)cc1 (configuration not stated)
A. 1.60

Q. Kindly indicate its recorded log10(solubility kinetic). Item: Nc1nc2c(F)c(F)c(F)cc2s1
A. 1.34

----------
// reported log10(solubility kinetic) per item
- test.conditions: buffer; pH 7.4; 200.0 µM
Scale: decimal log of solubility kinetic, solubility kinetic in µg/mL.

O=C(NC1CCOc2ccccc21)c1ccccn1 (stereo not drawn) | 1.56

Q. Kindly indicate its recorded log10(solubility kinetic). Item: Cc1nc2ccc([N+](=O)[O-])cc2s1
A. 1.29

Q. Kindly indicate its recorded log10(solubility kinetic). Item: CCOc1cc(/C=C2/NC(=O)N(CC(=O)OC)C2=O)ccc1O
A. 1.17

Q. Kindly indicate its recorded log10(solubility kinetic). Item: O=C(COC(=O)c1ccncc1)c1ccc(Br)cc1
A. 1.64

Q. Kindly indicate its recorded log10(solubility kinetic). Item: O=C(c1ccc(Cl)cc1)N1CCCCC(Cl)C1=O (stereo not drawn)
A. 0.84

Q. Kindly indicate its recorded log10(solubility kinetic). Item: CC1CC1C(=O)OCC(=O)Nc1cc(S(=O)(=O)N2CCCCC2)ccc1Cl (stereo not drawn)
A. 1.49

Q. Kindly indicate its recorded log10(solubility kinetic). Item: CCc1ccccc1OCC(=O)Nc1ccc2c(c1)OCCO2
A. 1.20

----------
// reported log10(solubility kinetic) per item
- test.conditions: buffer; pH 7.4; 200.0 µM
Scale: decimal log of solubility kinetic, solubility kinetic in µg/mL.

O=[N+]([O-])c1ccc(Cl)cc1CN1CCCCCC1 | 1.22
Cc1ccc(NC(=O)N2CCc3ccccc3C2)c(C)c1 | 0.73
O=C(CCn1c(=S)oc2ccccc21)NC1CCCCC1 | 0.20
Cc1c(C(=O)Oc2ccc(Cl)cc2)n(C)oc1=O | 1.57
COc1ccc(Nc2cc(Sc3ccc(OC)cc3)ncn2)cc1 | 0.66
CC(C)CNC(=O)c1cccc2c1-c1ccccc1C2=O | 0.40
COc1ccc2[nH]cc(CCNCc3cccnc3)c2c1.Cl | 1.66

Switching to the query record.
Q. Kindly indicate its recorded log10(solubility kinetic). Item: N#C/C(=C(/O)CCl)c1nc(-c2ccccc2)cs1
A. 1.62
